Measured values drawn from paper PMC6891263 for this set.

Test system: RAW264.7 cells
Experiment: Cytotoxicity by Cell Counting Kit-8 (CCK-8)
Details: CCK-8, tested at 25, 50 and 100 μM
ASSAY_ENDPOINT: Cytotoxicity

Observe how each entry below is paired with its result.
- COC(=O)CCCn1c(=O)[nH]c2ccccc2c1=O [Compound 13]: >100 µM
- O=C(O)c1ccccc1-n1cnc2ccccc2c1=O [Compound 15, 3-(2-carboxyphenyl)-4(3H)-quinazolinone]: >100 µM
- O=c1c2ccccc2ncn1-c1ccccc1O [Compound 14, 3-(2-hydroxyphenyl)-4(3H)-quinazolinone]: >100 µM
- O=c1cc(-c2ccc(O)cc2)c2cc(O)ccc2[nH]1 [Compound 1, Isatisindigoticanine E]: >100 µM

Please look at the following molecule next.
Query: Any idea what Cytotoxicity came out for COc1ccc2nc(-c3cc4ccccc4[nH]3)[nH]c(=O)c2c1 [Compound 5] on RAW264.7 cells?
Reply: >100 µM

###

Tested on: RAW264.7 cells
Test: Cytotoxicity by Cell Counting Kit-8 (CCK-8)
Settings: CCK-8, tested at 25, 50 and 100 μM
For each of the compounds below, state its Cytotoxicity.

Observe how each entry below is paired with its result.
• O=C(O)CCCn1c(=O)[nH]c2ccccc2c1=O [Compound 12] = >100 µM
• C=CCCc1nc2ccccc2c(=O)[nH]1 [Compound 7, 2-(but-3-en-1-yl)-4(3H)-quinazolinone] = >100 µM

Give Cytotoxicity for each listed item.
1. COc1cccc2[nH]c(=O)cc(-c3cc4ccccc4[nH]3)c12 [Compound 2, Isatisindigoticanine F]
2. NC(=O)C(c1[nH]c2ccccc2c1OC1OC(CO)C(O)C(O)C1O)c1c[nH]c2ccccc12 (stereo not shown) [Compound 23, Isatindigoside D]
3. Cc1nc2ccccc2c(=O)[nH]1 [Compound 17, 2-methyl-4(3H)-quinazolinone]

Reply:
1: >100 µM; 2: >100 µM; 3: >100 µM

Give Cytotoxicity for each listed item.
1. O=c1[nH]c(-c2ccccc2O)nc2ccccc12 [Compound 6, 2-(2-hydroxyphenyl)-4(3H)-quinazolinone]
2. Cl.N=C(N)NN [AG, aminoguanidine hydrochloride, reference compound]
3. O=c1[nH]c2ccccc2c(=O)n1CCCCO [Compound 11, indiforine C]
4. Cc1nc(O)nc2ccccc12 [Compound 16, 4-methyl-1,2-dihydro-2-oxoquinazoline]
5. O=c1c2ccccc2nc2n1CCC(c1c[nH]c3ccccc13)=C2 [Compound 3, Isatisindigoticanine G]

Reply:
1: >100 µM; 2: >100 µM; 3: >100 µM; 4: >100 µM; 5: >100 µM

Give Cytotoxicity for each listed item.
1. O=C(O)c1cnc2ccccc2c1O [Compound 21, 4(1H)-quinolone-3-carboxylic acid]
2. Cc1c(O)c2ccccc2[nH]c1=O [Compound 18, 4-hydroxy-3-methyl-2(1H)-quinolinone]

Reply:
[">100 µM", ">100 µM"]

Give Cytotoxicity for each listed item.
1. Oc1ccnc2ccccc12 [Compound 20, 4(1H)-quinolinone]
2. O=C(O)CCn1c(=O)[nH]c2ccccc2c1=O [Compound 10]

Reply:
>100 µM
>100 µM

Give Cytotoxicity for each listed item.
1. Nc1cc(C(=O)O)c2ccccc2n1 [Compound 19, 2-amino-4-quinolinecarboxylic acid]
2. O=c1cc(-c2ccc(O)cc2)c2ccccc2[nH]1 [Compound 4, 4-p-hydroxyphenyl-2(1H)-quinolinone]

Reply:
1. >100 µM
2. >100 µM
